Sourced from patent US8410089B2

# tested_on: human GPR119 (Homo sapiens, UniProt Q8TDV5)
# Construct: expressed in transfected cells
# Sequence (Q8TDV5 1-335): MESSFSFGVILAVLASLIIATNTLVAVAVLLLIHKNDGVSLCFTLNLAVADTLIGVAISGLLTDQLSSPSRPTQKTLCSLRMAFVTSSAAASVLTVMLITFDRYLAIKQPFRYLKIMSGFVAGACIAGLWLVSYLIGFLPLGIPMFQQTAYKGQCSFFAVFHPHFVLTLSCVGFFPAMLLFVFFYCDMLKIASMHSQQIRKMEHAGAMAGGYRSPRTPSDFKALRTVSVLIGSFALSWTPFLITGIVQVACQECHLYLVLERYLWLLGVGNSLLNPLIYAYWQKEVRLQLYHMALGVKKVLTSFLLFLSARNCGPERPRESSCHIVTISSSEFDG
# procedure_details: Human GPR119 agonist activity with increase of intracellular cAMP concentration as index (CRE-luciferase reporter assay in hGPR119/CRE-luc/CHO(dhfr-) cells)
# Type: cell-based
# condition: 1 μM test compound, 2 hr incubation; luciferase activity with 10 μM N-[4-(methylsulfonyl)phenyl]-5-nitro-6-{4-[4-(trifluoromethoxy)phenoxy]piperidin-1-yl}pyrimidin-4-amine = 100%, DMSO = 0%
parameter: GPR119 agonist activity (%) at 1 μM concentration
Could you give me the number in %? Just the number is fine.

Supply GPR119 agonist activity (%) at 1 μM concentration value. Item: CC(C)SC(=O)N1CCC(Oc2cc(N3CCc4cc(NC(=O)CO)ccc43)ncn2)CC1 82

Supply GPR119 agonist activity (%) at 1 μM concentration value. Item: CC(C)(C)OC(=O)N1CCC(n2ccc3c(N4CCc5cc(S(C)(=O)=O)ccc54)ccnc32)CC1 87

Supply GPR119 agonist activity (%) at 1 μM concentration value. Item: CC(C)OC(=O)N1CCC(Oc2cc(N3CCc4cc(NC(=O)[C@H]5CCCO5)ccc43)ncn2)CC1 83

Supply GPR119 agonist activity (%) at 1 μM concentration value. Item: CN(CCO)C(=O)c1ccc2c(c1)CCN2c1cc(OC2CCN(C(=O)OC(C)(C)C)CC2)ncn1 88
